From: patent US20140107109A1

# system tested: Beta Secretase enzyme (BACE1) (Homo sapiens)
# Sequence (P56817 46-501): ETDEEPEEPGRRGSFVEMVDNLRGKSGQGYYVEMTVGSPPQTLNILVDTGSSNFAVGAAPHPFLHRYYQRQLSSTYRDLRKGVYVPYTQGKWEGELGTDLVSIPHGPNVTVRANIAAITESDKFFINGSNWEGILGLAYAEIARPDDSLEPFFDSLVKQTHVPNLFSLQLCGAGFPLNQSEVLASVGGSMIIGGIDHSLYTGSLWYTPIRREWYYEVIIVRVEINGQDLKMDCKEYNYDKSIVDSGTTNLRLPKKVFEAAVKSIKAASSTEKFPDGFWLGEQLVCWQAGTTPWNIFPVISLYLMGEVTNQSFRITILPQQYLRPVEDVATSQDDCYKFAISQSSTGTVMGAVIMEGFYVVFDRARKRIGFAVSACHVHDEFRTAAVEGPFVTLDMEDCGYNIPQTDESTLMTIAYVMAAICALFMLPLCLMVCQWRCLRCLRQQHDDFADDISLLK
# experiment notes: In vitro enzymatic BACE FRET assay
# Type: biochemical
# assay context: read-out: BACE1 FRET assay IC50
property measured: IC50 (nM)

Some solved entries appear below for comparison.
Need IC50, item `COc1ccc(C(=O)Nc2cnc(F)c([C@]3(C)CS(=O)(=O)C(C)(C)C(N)=N3)c2)nc1`
3.98

Would you mind telling me what IC50 value was observed for `C=C(C)c1cc(Cl)cnc1C(=O)Nc1ccc(F)c([C@]2(CF)CS(=O)(=O)C(C)(C)C(N)=N2)c1` ?
3.54

A. COc1cc(Cl)cnc1C(=O)Nc1ccc(F)c([C@@]2(C)N=C(N)C3(CCC3)S(=O)(=O)[C@@H]2F)c1
B. C[C@@]1(c2cc(NC(=O)c3ccc(Cl)cn3)ccc2F)CS(=O)(=O)[C@]2(C[C@@H](F)C2)C(N)=N1
From the items above, decide which of A and B has the lower IC50 reading. // respond with label for picked entry
B
(B: 1 nM, A: 3.8 nM)
